The origin of these recorded values is paper PMC4434323.

Measured binding signal (PBM E-score (-0.5 to 0.5)) accompanies every entry in the list below.
Target: odr-7 (T18D3.2) (Caenorhabditis elegans) (UniProt P41933)
Sequence: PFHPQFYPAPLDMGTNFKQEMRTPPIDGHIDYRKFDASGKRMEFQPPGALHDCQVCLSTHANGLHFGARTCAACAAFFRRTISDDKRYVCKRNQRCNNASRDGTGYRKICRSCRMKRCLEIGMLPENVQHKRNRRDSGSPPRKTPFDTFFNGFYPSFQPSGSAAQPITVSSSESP

SEQUENCE CODE	RECORDED RESULT
AATTGTAC (double strand) [8-mer AATTGTAC]	0.46
TACAAATA (double strand) [8-mer TACAAATA]	0.461

Below: the item to evaluate.
Report binding signal (PBM E-score (-0.5 to 0.5)), nothing else, for this sequence: GGCTACAA (double strand) [8-mer GGCTACAA]
0.467

----------
Biological target: ceh-23 (ZK652.5) (Caenorhabditis elegans)
Sequence: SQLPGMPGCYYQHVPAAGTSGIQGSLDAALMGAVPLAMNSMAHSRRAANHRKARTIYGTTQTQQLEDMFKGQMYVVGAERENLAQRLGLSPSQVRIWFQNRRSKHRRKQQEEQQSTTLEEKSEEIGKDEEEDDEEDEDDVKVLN
RECORDED ENDPOINT: binding signal (PBM E-score (-0.5 to 0.5))

Sample answers from the record:
SEQUENCE CODE	RECORDED RESULT
CTAATTAA (double strand) [8-mer CTAATTAA]	0.498
TTAATTAA (double strand) [8-mer TTAATTAA]	0.497
CATAATTA (double strand) [8-mer CATAATTA]	0.493
CTTAATTA (double strand) [8-mer CTTAATTA]	0.494
ATTAATTA (double strand) [8-mer ATTAATTA]	0.495

Report binding signal (PBM E-score (-0.5 to 0.5)), nothing else, for this sequence: GGTAATTA (double strand) [8-mer GGTAATTA]
0.494

Report binding signal (PBM E-score (-0.5 to 0.5)), nothing else, for this sequence: GATAATTA (double strand) [8-mer GATAATTA]
0.492

Report binding signal (PBM E-score (-0.5 to 0.5)), nothing else, for this sequence: GTAATTAA (double strand) [8-mer GTAATTAA]
0.492

Report binding signal (PBM E-score (-0.5 to 0.5)), nothing else, for this sequence: GTTAATTA (double strand) [8-mer GTTAATTA]
0.497

Report binding signal (PBM E-score (-0.5 to 0.5)), nothing else, for this sequence: ATAATTAA (double strand) [8-mer ATAATTAA]
0.493

----------
Target: nhr-204 (R02C2.4) (Caenorhabditis elegans) (UniProt O44543)
Sequence: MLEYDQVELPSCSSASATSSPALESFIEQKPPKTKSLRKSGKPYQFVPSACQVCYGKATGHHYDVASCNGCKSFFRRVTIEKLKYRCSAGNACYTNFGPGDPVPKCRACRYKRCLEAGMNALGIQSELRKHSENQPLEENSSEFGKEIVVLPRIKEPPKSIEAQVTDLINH
RECORDED ENDPOINT: binding signal (PBM E-score (-0.5 to 0.5))
Answer with the value's number alone.

Sample answers from the record:
SEQUENCE CODE	RECORDED RESULT
ACTGATCA (double strand) [8-mer ACTGATCA]	0.477
ATTGGTCA (double strand) [8-mer ATTGGTCA]	0.477
AGACCAAT (double strand) [8-mer AGACCAAT]	0.486
TCTGATCA (double strand) [8-mer TCTGATCA]	0.482
CTGATCAA (double strand) [8-mer CTGATCAA]	0.481

Please tell me the measured binding signal (PBM E-score (-0.5 to 0.5)) for GTGATCAA (double strand) [8-mer GTGATCAA] ; system: nhr-204 (R02C2.4) (Caenorhabditis elegans) (UniProt O44543).
0.478

----------
Below are binding signal (PBM E-score (-0.5 to 0.5)) values measured for nhr-34 (F58G6.5) (Caenorhabditis elegans).

Sample answers from the record:
SEQUENCE CODE	SYSTEM TESTED	RECORDED RESULT
TTGATCAA (double strand) [8-mer TTGATCAA]	nhr-34 (F58G6.5) (Caenorhabditis elegans)	0.481
GAGACCAA (double strand) [8-mer GAGACCAA]	nhr-34 (F58G6.5) (Caenorhabditis elegans)	0.475

Below: the item to evaluate.
Please tell me the measured binding signal (PBM E-score (-0.5 to 0.5)) for GAGTTCAA (double strand) [8-mer GAGTTCAA] ; system: nhr-34 (F58G6.5) (Caenorhabditis elegans).
0.471

----------
Target: nhr-232 (Y22F5A.1) (Caenorhabditis elegans) (UniProt A0A486WVR6)
Sequence: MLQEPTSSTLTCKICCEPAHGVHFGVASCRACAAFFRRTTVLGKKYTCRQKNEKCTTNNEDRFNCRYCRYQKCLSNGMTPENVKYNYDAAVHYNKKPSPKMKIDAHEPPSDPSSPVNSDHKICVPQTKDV
RECORDED ENDPOINT: binding signal (PBM E-score (-0.5 to 0.5))

Report binding signal (PBM E-score (-0.5 to 0.5)), nothing else, for this sequence: AGTCACAA (double strand) [8-mer AGTCACAA]
0.497

Report binding signal (PBM E-score (-0.5 to 0.5)), nothing else, for this sequence: AAGTCACA (double strand) [8-mer AAGTCACA]
0.498

Report binding signal (PBM E-score (-0.5 to 0.5)), nothing else, for this sequence: TGTCACAA (double strand) [8-mer TGTCACAA]
0.474

Report binding signal (PBM E-score (-0.5 to 0.5)), nothing else, for this sequence: GTCACACA (double strand) [8-mer GTCACACA]
0.46

----------
target: atf-7 (C07G2.2) (Caenorhabditis elegans) (UniProt Q86MD3)
Sequence (Q86MD3 339-508): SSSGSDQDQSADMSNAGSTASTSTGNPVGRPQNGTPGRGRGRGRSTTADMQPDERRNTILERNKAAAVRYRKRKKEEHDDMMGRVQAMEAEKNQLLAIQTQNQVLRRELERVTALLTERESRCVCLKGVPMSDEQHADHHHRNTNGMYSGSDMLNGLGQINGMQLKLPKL
RECORDED ENDPOINT: binding signal (PBM E-score (-0.5 to 0.5))

Please tell me the measured binding signal (PBM E-score (-0.5 to 0.5)) for CCACGTCA (double strand) [8-mer CCACGTCA] ; system: atf-7 (C07G2.2) (Caenorhabditis elegans) (UniProt Q86MD3).
0.496

Please tell me the measured binding signal (PBM E-score (-0.5 to 0.5)) for CACGTCAC (double strand) [8-mer CACGTCAC] ; system: atf-7 (C07G2.2) (Caenorhabditis elegans) (UniProt Q86MD3).
0.496

Please tell me the measured binding signal (PBM E-score (-0.5 to 0.5)) for AACGTCAT (double strand) [8-mer AACGTCAT] ; system: atf-7 (C07G2.2) (Caenorhabditis elegans) (UniProt Q86MD3).
0.495

Please tell me the measured binding signal (PBM E-score (-0.5 to 0.5)) for ACGTCACT (double strand) [8-mer ACGTCACT] ; system: atf-7 (C07G2.2) (Caenorhabditis elegans) (UniProt Q86MD3).
0.496

Please tell me the measured binding signal (PBM E-score (-0.5 to 0.5)) for ACGTCATA (double strand) [8-mer ACGTCATA] ; system: atf-7 (C07G2.2) (Caenorhabditis elegans) (UniProt Q86MD3).
0.497

Please tell me the measured binding signal (PBM E-score (-0.5 to 0.5)) for ACGTCATC (double strand) [8-mer ACGTCATC] ; system: atf-7 (C07G2.2) (Caenorhabditis elegans) (UniProt Q86MD3).
0.499

Please tell me the measured binding signal (PBM E-score (-0.5 to 0.5)) for ACGTCACC (double strand) [8-mer ACGTCACC] ; system: atf-7 (C07G2.2) (Caenorhabditis elegans) (UniProt Q86MD3).
0.496

----------
Target: tbx-39 (Y73F8A.16) (Caenorhabditis elegans)
Sequence: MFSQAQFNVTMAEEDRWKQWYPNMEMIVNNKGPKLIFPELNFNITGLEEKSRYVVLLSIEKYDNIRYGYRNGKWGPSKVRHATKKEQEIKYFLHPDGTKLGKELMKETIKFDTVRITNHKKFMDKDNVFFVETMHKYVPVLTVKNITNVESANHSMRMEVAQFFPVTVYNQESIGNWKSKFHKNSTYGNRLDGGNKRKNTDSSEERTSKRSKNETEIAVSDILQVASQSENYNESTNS
Measured binding signal (PBM E-score (-0.5 to 0.5)) accompanies every entry in the list below.
Answer with the value's number alone.

Sample answers from the record:
SEQUENCE CODE	RECORDED RESULT
CTTGGCAC (double strand) [8-mer CTTGGCAC]	0.477
AACTTCGC (double strand) [8-mer AACTTCGC]	0.467
ACTTGGCA (double strand) [8-mer ACTTGGCA]	0.492

Report binding signal (PBM E-score (-0.5 to 0.5)), nothing else, for this sequence: AACTTAGC (double strand) [8-mer AACTTAGC]
0.493

Report binding signal (PBM E-score (-0.5 to 0.5)), nothing else, for this sequence: CCAAGTTA (double strand) [8-mer CCAAGTTA]
0.495

Report binding signal (PBM E-score (-0.5 to 0.5)), nothing else, for this sequence: AACTTGGT (double strand) [8-mer AACTTGGT]
0.496
